# system_name: Adenosine receptor A1 (Homo sapiens)
# Sequence (whole entry): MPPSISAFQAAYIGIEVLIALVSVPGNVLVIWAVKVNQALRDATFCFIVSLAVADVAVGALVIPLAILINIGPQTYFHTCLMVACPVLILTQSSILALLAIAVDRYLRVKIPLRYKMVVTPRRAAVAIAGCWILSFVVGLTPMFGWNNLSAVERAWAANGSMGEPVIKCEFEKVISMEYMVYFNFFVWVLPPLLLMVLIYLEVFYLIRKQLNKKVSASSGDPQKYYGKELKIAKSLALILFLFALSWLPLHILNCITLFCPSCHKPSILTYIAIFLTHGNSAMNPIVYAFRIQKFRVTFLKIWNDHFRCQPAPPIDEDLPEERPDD
# protocol: Allosteric modulation of human adenosine A1 receptor transfected in CHO FlpIn cells assessed as orthosteric agonist R-PIA-mediated ERK1/2 phosphorylation at 10 uM pretreated 30 mins before R-PIA challenge measured after 1.5 hrs by fluorescence assay
# Format: functional, cell-based
Assignment: determine reported Activity for the given molecules.
Numbers only, in %.

In the examples that follow, each entry is paired with its recorded Activity.
> print(dat)
                            molecular.string  result.type  unit.label  result.value
 1         Nc1scc(-c2ccccc2F)c1C(=O)c1ccccc1     Activity           %            68
 2      Nc1scc(-c2ccc(Br)cc2)c1C(=O)c1ccccc1     Activity           %            49
 3      Nc1scc(-c2ccccc2)c1C(=O)c1ccc(Cl)cc1     Activity           %            64
 4    Nc1scc(-c2ccc3ccccc3c2)c1C(=O)c1ccccc1     Activity           %            73
 5       Nc1scc(-c2ccc(I)cc2)c1C(=O)c1ccccc1     Activity           %            50
 6      Nc1scc(-c2cccc(Cl)c2)c1C(=O)c1ccccc1     Activity           %            52
 7          Nc1scc(-c2ccccc2)c1C(=O)c1ccccc1     Activity           %            48
 8  Nc1scc(-c2cccc([N+](=O)[O-])c2)c1C(=O)c1ccccc1     Activity           %            50
 9  Nc1scc(-c2cccc(C(F)(F)F)c2)c1C(=O)c1ccc(Cl)cc1     Activity           %            73
10   Nc1scc(-c2ccc(I)cc2)c1C(=O)c1ccc(Cl)cc1     Activity           %            61

Below are some molecules; for each one, tell me its Activity.
1. Nc1scc(-c2ccc([N+](=O)[O-])cc2)c1C(=O)c1ccccc1
2. COc1ccc(-c2csc(N)c2C(=O)c2ccccc2)cc1
3. Nc1scc(-c2cccc(Br)c2)c1C(=O)c1ccc(Cl)cc1

1. 47
2. 52
3. 69

Values from ChEMBL document CHEMBL1153039
